test system: RXF 393 renal; experiment: NCI-60 one-dose screen, 48 h (100 = growth as untreated, 0 = no growth, -100 = all killed); conditions: 10 µM
Compounds without any hit were thinned out: in the full panel of roughly 83,000, 20% have a hit.
The following compounds are shown together with reported growth values.
Write it as a number; the unit % goes unstated.

Below, 5 compounds whose answers are already recorded.
Compound	Quantity measured	Recorded value
COc1ccc(-c2nc3sc(C4CC4)nn3c2/C=C2/C(=O)Nc3ccc(OC)cc32)cc1	growth	63.9
COc1cc(/C=C2\CCCC3=C2N=C2SC=NN2C3c2cc(OC)c(OC)c(OC)c2)cc(OC)c1OC (stereo unspecified)	growth	21.7
Cc1cc2ccccc2nc1-c1ccccc1F	growth	99
Cc1ccc(N=Nc2c(N)nc(N)[nH]c2=O)cc1C	growth	110
ClCC#CCSc1ncnc2c1ncn2CC#CCCl	growth	-65.9

Problem: Please look up its growth: CCC(=O)N1C/C(=C/c2ccc(Br)cc2)C(=O)/C(=C/c2ccc(Br)cc2)C1
Result: -92.7

Problem: Please look up its growth: Clc1cc2c(c(CSc3nc4ccccc4n4cccc34)c1)OCOC2
Result: 34.2

Problem: Please look up its growth: CCOC(=O)N/N=C\C(C)=N\NC(=O)OCC
Result: 125

Problem: Please look up its growth: CCN1CCCC1CNC(=O)c1ncc(-c2ccc(C(F)(F)F)cc2)c(NC2CCCCCC2)n1 (stereo unspecified)
Result: 74.1

Problem: Please look up its growth: Clc1cccc(-c2nc(-c3cccs3)no2)c1
Result: 113

Problem: Please look up its growth: OCC1OC(n2cnc3c(N/N=C\c4ccccn4)ncnc32)C(O)C1O (stereo unspecified)
Result: 33.4

###

The following molecules are shown together with reported growth values.
tested on: HS 578T breast; test: NCI-60 one-dose screen, 48 h (100 = growth as untreated, 0 = no growth, -100 = all killed); conditions: 10 µM
About 83,000 compounds went through this panel and 20% of them were active in at least one assay; those are over-represented in the sample as a whole.
Write it as a number; the unit % goes unstated.

Molecule	Target system	Readout units	growth
O=C1/C(=C\c2ccc(Br)cc2)CN(C(=O)c2ccccc2F)C/C1=C\c1ccc(Br)cc1	HS 578T breast	%	24.1
COc1cc(-c2nn3c(/C=C4/C(=O)Nc5ccccc54)c(-c4ccc(C)cc4)nc3s2)cc(OC)c1OC	HS 578T breast	%	-19.4
CN(C)c1ccc(-c2cc(-c3cccc(NS(C)(=O)=O)c3)nc(N)c2C#N)cc1	HS 578T breast	%	15.3
COc1ccc2c(c1)nc(N)c1c3cccnc3cn21	HS 578T breast	%	43.1
COc1cc(/C=N/NC(=O)c2ccccc2Nc2cccc(C(F)(F)F)c2)cc(OC)c1OC	HS 578T breast	%	12.2

Problem: Please look up its growth: COc1ccc2c(c1)C(=O)c1c-2c(OCCN(C)C)nc2cc(OC)c(OC)cc12
Result: 85.7

Problem: Please look up its growth: CN(C)C=Nc1cc(Cl)ccc1Cl
Result: 117

Problem: Please look up its growth: COc1cc(-c2cc(C(=O)N3CCN(C(=O)c4ccccc4NCc4ccco4)CC3)nc3cc(-c4ccccc4)nn23)cc(OC)c1OC
Result: 36.5

###

system: LOX IMVI melanoma; test: NCI-60 one-dose screen, 48 h (100 = growth as untreated, 0 = no growth, -100 = all killed); settings: 10 µM
The panel holds about 83,000 compounds, 20% with a hit somewhere; the sample as a whole holds those more often.
Kind request: treat 50% as inclusive, so growth at 50% or higher is true, anything lower is false.

Problem: Quick check, growth >= 50%? CCCCC/C=C/C(=O)CCc1ccc(O)c(OC)c1
Result: false

Problem: Quick check, growth >= 50%? CCN(CC)CCOc1nc2cc(OC)c(OC)cc2c2c1-c1ccc(OC)cc1C2=O
Result: false

Problem: Quick check, growth >= 50%? Cc1cccc2c(NCCN(C)C)c3cccc(C(=O)NCCN(C)C)c3nc12
Result: false

Problem: Quick check, growth >= 50%? CC1=C(N2CCOCC2)C(N2CCOCC2)=C(C)C(=O)C1=O
Result: true

Problem: Quick check, growth >= 50%? CN(C)CCS(=O)(=O)CCN(C)C
Result: true

Problem: Quick check, growth >= 50%? COC(=O)C(=C\c1ccc2c(c1)OCO2)/C(=C/c1ccc2c(c1)OCO2)C(=O)OC
Result: true

Problem: Quick check, growth >= 50%? O=C(N/N=C\c1cc(Cl)ccc1[N+](=O)[O-])c1ccco1
Result: true

Problem: Quick check, growth >= 50%? Clc1cccc(-c2nc(-c3cccs3)no2)c1
Result: true

Problem: Quick check, growth >= 50%? COc1ccc(/C=C/C(C)=N/OCC(=O)O)cc1
Result: true

Problem: Quick check, growth >= 50%? Cc1ccc(S(=O)(=O)Oc2ccc3c4c(c(=O)oc3c2)CCCCC4)cc1
Result: true

Problem: Quick check, growth >= 50%? COc1cc(-c2cc(/C=C/C(=O)c3ccc(Cl)c(Cl)c3)[nH]n2)cc(OC)c1OC
Result: false

Problem: Quick check, growth >= 50%? O=C1ON=[N+](c2ccc(Cc3ccc([N+]4=NOC(=O)C4CN4CCOCC4)cc3)cc2)C1CN1CCOCC1 (stereo unspecified)
Result: true

###

test system: HS 578T breast; assay: NCI-60 one-dose screen, 48 h (100 = growth as untreated, 0 = no growth, -100 = all killed); details: 10 µM
About 83,000 compounds went through this panel and 20% of them were active in at least one assay; those are over-represented in the sample as a whole.
The following compounds are shown together with reported growth values.
Write it as a number; the unit % goes unstated.

Compound	Target system	Readout units	Recorded value
CCOC(=O)c1ccc(NC(=O)Nc2ncc(Cl)cc2Cl)cc1	HS 578T breast	%	132

Problem: Please look up its growth: CN(C)Cc1cn(-c2ncc(-c3ccc(C(F)(F)F)cc3)c(NC3CCCCCC3)n2)nn1
Result: 93.6

Problem: Please look up its growth: COc1cccc(C2C3=C(COC3=O)N(CCO)c3cc(OC)ccc32)c1 (stereo not given)
Result: 15.5

Problem: Please look up its growth: O=C(Nc1ccncc1)C(=O)c1cn(S(=O)(=O)c2cc(Cl)cc(Cl)c2)c2ccccc12
Result: 69.6

Problem: Please look up its growth: Cc1cccc(NC2=C(C#N)C(=O)NC3(CCCC3)S2)c1
Result: 103

Problem: Please look up its growth: C#Cc1ccc(-n2c(/C=C/c3cc(OC)cc(OC)c3)nc3ncccc3c2=O)cc1
Result: 88

Problem: Please look up its growth: Cc1ccc(C(=O)N2C/C(=C/c3ccc(F)cc3)C(=O)/C(=C/c3ccc(F)cc3)C2)cc1
Result: 107

Problem: Please look up its growth: CC(=O)N1C/C(=C/c2ccc(Cl)cc2)C(=O)/C(=C/c2ccc(Cl)cc2)C1
Result: 14.5

Problem: Please look up its growth: N=c1c2c(-c3ccccc3)c(-c3ccccc3)n(Cc3ccccc3)c2ncn1CCCO
Result: 46

Problem: Please look up its growth: COc1ccc(N2C(=O)C3c4[nH]c5ccc(OCc6ccccc6)cc5c4C4CCC(C(C)C)CC4C3C2=O)cc1 (stereo not given)
Result: 92.7

Problem: Please look up its growth: COc1ccc(OC)c(/C=C/c2nc(SCc3ccccc3)n(-c3ccc(Cl)cc3)n2)c1
Result: -2.4

###

system: MDA-MB-231 breast; assay: NCI-60 one-dose screen, 48 h (100 = growth as untreated, 0 = no growth, -100 = all killed); conditions: 10 µM
The panel holds about 83,000 compounds, 20% with a hit somewhere; the sample as a whole holds those more often.
Quantity measured: growth (%)
Write it as a number; the unit % goes unstated.

Compound	growth [%]
CO/N=C(/C(=O)NC1C(=O)N2C(C(=O)O)=C(COC(N)=O)CSC12)c1ccco1 (centres undefined)	107
CCOC(=O)N1C=CC2C=CC1C1C=CC=CC2N1C(=O)OCC (centres undefined)	87
CCCCCCCCCCCCCCCC(=O)OC1[C@@H](OC(=O)CCCCCCCCCCCCCCC)[C@@H](C(=O)N[C@@H](CCCCN)C(=O)OC)O[C@H]1n1cnc2c(=O)[nH]c(NC(=O)C(C)C)nc21 (some centres undefined)	118

Problem: Please look up its growth: O=C(CNC(=O)OCc1ccccc1)NCC(=O)Oc1ccc([N+](=O)[O-])cc1
Result: 106

###

tested on: NCI/ADR-RES ovarian; assay: NCI-60 one-dose screen, 48 h (100 = growth as untreated, 0 = no growth, -100 = all killed); conditions: 10 µM
The panel holds about 83,000 compounds, 20% with a hit somewhere; the sample as a whole holds those more often. Calls of active or inactive are those of the source. How the source made its calls: active means growth percent below 10; inactive means the rest.
Quantity measured: growth

Below, 5 molecules whose answers are already recorded.
Molecule	Recorded value
COc1ccc(-c2nc(-c3nc4ccc(OC)cc4[nH]3)cc3c2[nH]c2ccccc23)cc1	32.9% (inactive)
COc1ccc2c(c1)sc1nc(-c3ccccc3)c(-c3ccc(O)c(OC)c3)n12	64.6% (inactive)
O=[N+]([O-])c1cccc(-c2ncc(-c3ccc(Cl)cc3Cl)[nH]2)c1	97.2% (inactive)
CN(C)CCS(=O)(=O)CCN(C)C	105% (inactive)
CCN(CC)CCC(CNc1c(C)cnc2cc(Cl)ccc12)c1ccc(Cl)c(Cl)c1 (stereo not given)	63.7% (inactive)

Problem: Please look up its growth: N#CCCN1C/C(=C/c2ccc(Br)cc2)C(=O)/C(=C/c2ccc(Br)cc2)C1
Result: 16.8% (inactive)

Problem: Please look up its growth: O=C(/C(=C/c1ccccc1)CN1CCCCC1)c1ccccc1
Result: 4.84% (active)
